Item-by-item account of Duration of Tremor and Seizures
System: strychnine-induced seizures
Test: Strychnine-induced seizure model
Format: in vivo, mice
Conditions: oral dose 1.0 mg/kg 60 min before strychnine 1.5 mg/kg s.c.; mean ± SD, N = 10
Number in min, nothing else.

For orientation, consider the following solved cases.
COc1cc2c(cc1OC)C(c1ccc(O)c(Br)c1)NCC2 (stereo not drawn) [Compound 18] | 0.56
COc1cc2c(cc1OC)C(c1ccccc1OC)NCC2 (stereo not drawn) [Compound 6] | 0.50
COc1cc(Br)c(C2NCCc3cc(OC)c(OC)cc32)cc1O (stereo not drawn) [Compound 24] | 0.32
COc1cc2c(cc1OC)C(c1ccccc1[N+](=O)[O-])NCC2 (stereo not drawn) [Compound 7] | 0.32
COc1ccc(C2NCCc3cc(OC)c(OC)cc32)cc1Br (stereo not drawn) [Compound 19] | 0.59

Q: Give the measured Duration of Tremor and Seizures for COc1cc2c(cc1OC)C(c1ccccc1N)NCC2 (stereo not drawn) [Compound 32]
A: 0.34

Q: Complete the entry with Duration of Tremor and Seizures for COc1cc2c(cc1OC)C(c1cccc(N)c1)NCC2 (stereo not drawn) [Compound 33]
A: 0.42

Q: Fill in Duration of Tremor and Seizures for record COc1cc2c(cc1OC)C(c1cc3c(cc1Br)OCO3)NCC2 (stereo not drawn) [Compound 30]
A: 0.41

Q: Look up and report measured Duration of Tremor and Seizures for this entry: COc1cc2c(cc1OC)C(c1ccc(OC)c(O)c1Br)NCC2 (stereo not drawn) [Compound 27]
A: 0.53
